Measured IC50 of individual entries
molecular target: LRRK2 (Homo sapiens, UniProt Q5S007); test: LRRK2-LRRK2 G2019S-Assay (LanthaScreen Eu Kinase Binding Assay); settings: 5 nM LRRK2, 10 nM tracer 236, 2 nM EU-Anti-GST antibody, 1 h at RT; read-out: LRRK2 Activities: IC50
Sequence (Q5S007 970-2527 limits assumed): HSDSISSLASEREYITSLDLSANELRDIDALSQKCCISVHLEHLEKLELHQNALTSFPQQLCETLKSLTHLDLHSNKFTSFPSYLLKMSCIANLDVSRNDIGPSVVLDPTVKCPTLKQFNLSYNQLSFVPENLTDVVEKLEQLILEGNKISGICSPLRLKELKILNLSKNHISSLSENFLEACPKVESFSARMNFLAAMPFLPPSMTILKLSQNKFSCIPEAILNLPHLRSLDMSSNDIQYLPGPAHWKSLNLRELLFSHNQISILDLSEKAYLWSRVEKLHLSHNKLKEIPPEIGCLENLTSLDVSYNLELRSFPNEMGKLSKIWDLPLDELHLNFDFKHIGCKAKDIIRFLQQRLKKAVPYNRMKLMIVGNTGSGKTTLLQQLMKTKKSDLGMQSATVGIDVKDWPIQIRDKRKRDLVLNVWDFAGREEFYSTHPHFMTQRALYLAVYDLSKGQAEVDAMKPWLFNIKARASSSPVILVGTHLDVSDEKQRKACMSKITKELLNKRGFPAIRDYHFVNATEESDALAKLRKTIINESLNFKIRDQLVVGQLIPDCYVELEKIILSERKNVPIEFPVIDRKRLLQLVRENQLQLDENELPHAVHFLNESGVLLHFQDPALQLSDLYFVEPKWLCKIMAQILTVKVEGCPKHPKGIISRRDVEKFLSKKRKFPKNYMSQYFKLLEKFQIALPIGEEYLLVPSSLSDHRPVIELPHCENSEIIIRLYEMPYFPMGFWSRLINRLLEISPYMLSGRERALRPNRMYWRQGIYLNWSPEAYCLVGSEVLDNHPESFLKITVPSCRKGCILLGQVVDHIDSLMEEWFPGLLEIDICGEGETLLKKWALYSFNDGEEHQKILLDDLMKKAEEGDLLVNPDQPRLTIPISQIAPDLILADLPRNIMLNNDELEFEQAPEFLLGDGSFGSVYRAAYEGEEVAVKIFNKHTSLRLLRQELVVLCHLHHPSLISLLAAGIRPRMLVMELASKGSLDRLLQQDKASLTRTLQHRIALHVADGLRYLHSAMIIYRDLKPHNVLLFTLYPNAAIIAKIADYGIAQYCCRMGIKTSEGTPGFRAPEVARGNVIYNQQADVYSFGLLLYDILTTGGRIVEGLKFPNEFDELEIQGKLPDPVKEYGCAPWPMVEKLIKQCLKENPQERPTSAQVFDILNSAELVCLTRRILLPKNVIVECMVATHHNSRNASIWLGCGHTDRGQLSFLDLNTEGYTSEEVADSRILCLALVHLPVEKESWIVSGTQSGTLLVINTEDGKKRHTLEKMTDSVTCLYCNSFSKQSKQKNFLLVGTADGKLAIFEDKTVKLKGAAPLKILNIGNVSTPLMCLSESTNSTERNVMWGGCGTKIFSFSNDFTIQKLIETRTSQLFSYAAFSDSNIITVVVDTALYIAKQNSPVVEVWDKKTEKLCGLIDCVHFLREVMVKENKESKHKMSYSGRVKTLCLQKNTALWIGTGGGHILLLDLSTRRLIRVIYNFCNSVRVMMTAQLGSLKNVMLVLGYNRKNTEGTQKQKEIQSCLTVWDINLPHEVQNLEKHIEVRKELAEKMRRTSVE

Examples with answers:
[[record]]
line_notation = "CN1C(=O)COc2ccc(Nc3nc4ccc(S(C)(=O)=O)cc4c4c[nH]nc34)cc21"
result = "10 to 100 nM"

[[record]]
line_notation = "COc1nn(C(C)C)cc1Nc1nc2ccc(S(C)(=O)=O)cc2c2cn[nH]c12"
result = "< 10 nM"

[[record]]
line_notation = "COC(C)(C)Cn1cc(Nc2nc3ccc(S(C)(=O)=O)cc3c3cn[nH]c23)cn1"
result = "10 to 100 nM"


We now examine a further compound.
# input Provide measured IC50 value, entry: `CC(C)Cn1cc(Nc2nc3ccc(S(C)(=O)=O)cc3c3cn[nH]c23)cn1`
# output < 10 nM

* * *

biological target: LRRK2 (Homo sapiens); test: LRRK2-LRRK2 G2019S-Assay (LanthaScreen Eu Kinase Binding Assay); conditions: 5 nM LRRK2, 10 nM tracer 236, 2 nM EU-Anti-GST antibody, 1 h at RT; read-out: LRRK2 Activities: IC50
pIC50: −log10 of the molar value.
parameter: pIC50

[[record]]
compound = "COc1cccc2nc(Nc3ccc(N4CCOC4=O)cc3)c3n[nH]cc3c12"
result = "> 8.00"

[[record]]
compound = "COCCCn1cc(Nc2nc3ccc(OC)cc3c3cn[nH]c23)cn1"
result = "> 8.00"


# input Provide measured pIC50 value, entry: `Fc1cccc2nc(Nc3ccc(N4CCOCC4)nc3)c3[nH]ncc3c12`
# output 6.00 to 7.00

# input Provide measured pIC50 value, entry: `CN1CCC(n2cc(Nc3nc4cc(S(C)(=O)=O)ccc4c4cn[nH]c34)cn2)CC1`
# output 6.00 to 7.00

# input Provide measured pIC50 value, entry: CS(=O)(=O)c1ccc2nc(Nc3cnn(C4CCNC4)c3)c3n[nH]cc3c2c1 (stereo not shown)
# output > 8.00

# input Provide measured pIC50 value, entry: `CS(=O)(=O)c1ccc2c(c1)nc(Nc1cnn(CCO)c1)c1[nH]ncc12`
# output > 8.00

# input Provide measured pIC50 value, entry: CC(C(=O)O)n1cc(Nc2nc3ccc(S(C)(=O)=O)cc3c3c[nH]nc23)cn1 (stereo not shown)
# output 7.00 to 8.00

# input Provide measured pIC50 value, entry: `COc1cc(Nc2nc3cccc(OC)c3c3cn[nH]c23)ccc1N1CCOCC1`
# output 7.00 to 8.00

# input Provide measured pIC50 value, entry: COc1ccc2nc(Nc3cnn(C(C)C(C)C)c3)c3n[nH]cc3c2c1 (stereo not shown)
# output 7.00 to 8.00

# input Provide measured pIC50 value, entry: `CS(=O)(=O)c1ccc2nc(Nc3cnn(C4COC4)c3)c3[nH]ncc3c2c1`
# output 7.00 to 8.00

* * *

molecular target: LRRK2 (Homo sapiens); assay: LRRK2-LRRK2 G2019S-Assay (LanthaScreen Eu Kinase Binding Assay); settings: 5 nM LRRK2, 10 nM tracer 236, 2 nM EU-Anti-GST antibody, 1 h at RT; read-out: LRRK2 Activities: IC50
parameter: IC50

Examples with answers:
[[record]]
molecule = "COc1cccc2nc(Nc3cn(C4CCOCC4)nc3C)c3[nH]ncc3c12 [Example 207]"
target_or_test_system = "LRRK2 (Homo sapiens)"
parameter = "IC50"
result = "10 to 100 nM"

[[record]]
molecule = "Cn1nc(C2CC2)cc1Nc1nc2ccc(S(C)(=O)=O)cc2c2cn[nH]c12 [Example 239]"
target_or_test_system = "LRRK2 (Homo sapiens)"
parameter = "IC50"
result = "100 to 1000 nM"

[[record]]
molecule = "COc1cccc2nc(Nc3ccc(C(=O)N4CCCC4)cc3)c3[nH]ncc3c12 [Example 61]"
target_or_test_system = "LRRK2 (Homo sapiens)"
parameter = "IC50"
result = "10 to 100 nM"

[[record]]
molecule = "COc1cccc2nc(Nc3cnn(C4CCNCC4)c3)c3[nH]ncc3c12 [Example 236]"
target_or_test_system = "LRRK2 (Homo sapiens)"
parameter = "IC50"
result = "< 10 nM"

[[record]]
molecule = "Cc1cccc2nc(Nc3ccc(N4CCOCC4)cc3)c3[nH]ncc3c12 [Example 89]"
target_or_test_system = "LRRK2 (Homo sapiens)"
parameter = "IC50"
result = "100 to 1000 nM"

[[record]]
molecule = "COc1ccc2nc(Nc3ccc(N4CCC(O)CC4)cc3)c3[nH]ncc3c2c1 [Example 296]"
target_or_test_system = "LRRK2 (Homo sapiens)"
parameter = "IC50"
result = "10 to 100 nM"


# input Provide measured IC50 value, entry: COCCn1cc(Nc2nc3cc(SC)ccc3c3cn[nH]c23)cn1 [Example 171]
# output 100 to 1000 nM

# input Provide measured IC50 value, entry: COc1cc(C(=O)N2CCOCC2)ccc1Nc1nc2ccc(S(C)(=O)=O)cc2c2cn[nH]c12 [Example 196]
# output 10 to 100 nM

# input Provide measured IC50 value, entry: COc1ccc2nc(Nc3cnn(CC(=O)N(C)C)c3)c3n[nH]cc3c2c1 [Example 311]
# output 10 to 100 nM
